# Experimental protocol: Cmax in Balb/c mouse plasma at 100 mg/kg, po by LC-MS/MS analysis
# Assay type: ADME, organism-based
# Parameters: dose 100 mg/kg, route oral
Metric name: Cmax

> print(dat)
                                        mol  endpoint.result
1  C[C@H]1Cc2ccccc2N1C(=O)Cc1nc(N2CCOCC2)cc(=O)[nH]1       8960 ng/mL

----------
# Experimental protocol: AUC (infinity) in Beagle dog at 3 mg/kg, iv
# Type: ADME, organism-based, Canis lupus familiaris
# Set-up: time infinity, dose 3 mg/kg, route intravenous
# Measurement parameters: plasma
Metric name: AUC(0-inf)

> print(dat)
                                        mol  endpoint.result
1  C[C@H]1Cc2ccccc2N1C(=O)Cc1nc(N2CCOCC2)cc(=O)[nH]1     6.58 µg·h/mL

----------
remaining at 20 min, 5 µM reference
# Experimental protocol: Metabolic stability in human liver microsomes at 5 uM after 20 mins
# Measurement parameters: liver microsomes
Metric name: remaining at 20 min, 5 µM (%)

> print(dat)
                                    compound  endpoint.result
 1  O=C(Cc1nc(N2CCOCC2)cc(=O)[nH]1)N1CCc2c(-c3ccncc3)cccc21               43
 2  C[C@H]1Cc2ccccc2N1C(=O)Cc1nc(N2CCOCC2)cc(=O)[nH]1 [SAR-260301]               12
 3  O=C(Cc1nc(N2CCOCC2)cc(=O)[nH]1)N1CCc2c(-c3ccccn3)cccc21               36
 4  O=C(Cc1nc(N2CCOCC2)cc(=O)[nH]1)N1CCc2cc(F)ccc21               18
 5  O=C(Cc1nc(N2CCOCC2)cc(=O)[nH]1)N1CCc2ccccc21               12
 6  O=C(Cc1nc(N2CCOCC2)cc(=O)[nH]1)N1CCc2c(-c3cccnc3)cccc21               29
 7  O=C(Cc1nc(N2CCOCC2)cc(=O)[nH]1)N1CCc2c(Cl)cccc21               18
 8  O=C(Cc1nc(N2CCOCC2)cc(=O)[nH]1)N1CCc2cc(Cl)ccc21               34
 9  O=C(Cc1nc(N2CCOCC2)cc(=O)[nH]1)N1CCc2c(OC(F)(F)F)cccc21               48
10  COc1cccc2c1CCN2C(=O)Cc1nc(N2CCOCC2)cc(=O)[nH]1                0

----------
# System tested: Phosphatidylinositol 4,5-bisphosphate 3-kinase catalytic subunit delta isoform (Homo sapiens, UniProt O00329)
# Sequence (O00329 whole entry): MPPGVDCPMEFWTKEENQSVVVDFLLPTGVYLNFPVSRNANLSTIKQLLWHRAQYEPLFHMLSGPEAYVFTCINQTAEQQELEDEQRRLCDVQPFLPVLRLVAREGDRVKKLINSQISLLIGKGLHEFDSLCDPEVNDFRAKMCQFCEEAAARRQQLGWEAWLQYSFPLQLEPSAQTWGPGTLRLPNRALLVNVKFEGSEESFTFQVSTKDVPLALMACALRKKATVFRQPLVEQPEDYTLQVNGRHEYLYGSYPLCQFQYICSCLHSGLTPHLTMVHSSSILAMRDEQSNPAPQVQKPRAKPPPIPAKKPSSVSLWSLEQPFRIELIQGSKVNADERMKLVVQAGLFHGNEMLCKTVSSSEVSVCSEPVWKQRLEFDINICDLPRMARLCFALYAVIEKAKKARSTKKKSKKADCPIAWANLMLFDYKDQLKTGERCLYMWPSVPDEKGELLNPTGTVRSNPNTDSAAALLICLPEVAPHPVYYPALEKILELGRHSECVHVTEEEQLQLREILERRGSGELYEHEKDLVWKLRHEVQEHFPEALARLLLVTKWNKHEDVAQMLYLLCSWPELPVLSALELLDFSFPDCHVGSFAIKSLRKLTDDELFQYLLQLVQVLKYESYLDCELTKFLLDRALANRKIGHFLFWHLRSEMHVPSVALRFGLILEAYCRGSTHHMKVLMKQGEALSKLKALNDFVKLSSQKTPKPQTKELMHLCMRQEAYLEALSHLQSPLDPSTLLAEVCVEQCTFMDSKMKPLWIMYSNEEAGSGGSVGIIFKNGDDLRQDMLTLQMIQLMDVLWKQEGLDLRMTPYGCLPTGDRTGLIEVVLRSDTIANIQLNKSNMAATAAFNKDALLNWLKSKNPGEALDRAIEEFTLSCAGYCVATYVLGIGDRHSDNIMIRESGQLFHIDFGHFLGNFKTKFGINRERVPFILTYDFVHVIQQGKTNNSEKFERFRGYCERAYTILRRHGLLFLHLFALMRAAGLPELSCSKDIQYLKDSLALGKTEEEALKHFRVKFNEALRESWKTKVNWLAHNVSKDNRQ
# Experimental protocol: Inhibition of N-terminal ploy-His-tagged human PI3Kdelta expressed in baculovirus-infected sf9 cells using PI(4,5)P2 as substrate after 15 mins by HTRF assay
Rule: IC50 below 40 nM gives MET, anything at or above gives NOT MET.

> print(dat)
                                   compound  classification
1  O=C(Cc1nc(N2CCOCC2)cc(=O)[nH]1)N1CCc2c(-c3ccccn3)cccc21         NOT MET
2  CC1Cc2ccccc2N1C(=O)Cc1nc(N2CCOCC2)cc(=O)[nH]1 (racemic)             MET
3  CN1CCN(c2cccc3c2CCN3C(=O)Cc2nc(N3CCOCC3)cc(=O)[nH]2)CC1             MET
4  O=C(Cc1nc(N2CCOCC2)cc(=O)[nH]1)N1CCc2c(OC(F)(F)F)cccc21             MET
5  C[C@@H]1Cc2ccccc2N1C(=O)Cc1nc(N2CCOCC2)cc(=O)[nH]1             MET
6  O=C(Cc1nc(N2CCOCC2)cc(=O)[nH]1)N1CCc2cc(F)ccc21             MET
7  COc1cccc2c1CCN2C(=O)Cc1nc(N2CCOCC2)cc(=O)[nH]1         NOT MET

----------
# System tested: Phosphatidylinositol 4,5-bisphosphate 3-kinase catalytic subunit beta isoform (Homo sapiens)
# Sequence (P42338 whole entry, canonical isoform): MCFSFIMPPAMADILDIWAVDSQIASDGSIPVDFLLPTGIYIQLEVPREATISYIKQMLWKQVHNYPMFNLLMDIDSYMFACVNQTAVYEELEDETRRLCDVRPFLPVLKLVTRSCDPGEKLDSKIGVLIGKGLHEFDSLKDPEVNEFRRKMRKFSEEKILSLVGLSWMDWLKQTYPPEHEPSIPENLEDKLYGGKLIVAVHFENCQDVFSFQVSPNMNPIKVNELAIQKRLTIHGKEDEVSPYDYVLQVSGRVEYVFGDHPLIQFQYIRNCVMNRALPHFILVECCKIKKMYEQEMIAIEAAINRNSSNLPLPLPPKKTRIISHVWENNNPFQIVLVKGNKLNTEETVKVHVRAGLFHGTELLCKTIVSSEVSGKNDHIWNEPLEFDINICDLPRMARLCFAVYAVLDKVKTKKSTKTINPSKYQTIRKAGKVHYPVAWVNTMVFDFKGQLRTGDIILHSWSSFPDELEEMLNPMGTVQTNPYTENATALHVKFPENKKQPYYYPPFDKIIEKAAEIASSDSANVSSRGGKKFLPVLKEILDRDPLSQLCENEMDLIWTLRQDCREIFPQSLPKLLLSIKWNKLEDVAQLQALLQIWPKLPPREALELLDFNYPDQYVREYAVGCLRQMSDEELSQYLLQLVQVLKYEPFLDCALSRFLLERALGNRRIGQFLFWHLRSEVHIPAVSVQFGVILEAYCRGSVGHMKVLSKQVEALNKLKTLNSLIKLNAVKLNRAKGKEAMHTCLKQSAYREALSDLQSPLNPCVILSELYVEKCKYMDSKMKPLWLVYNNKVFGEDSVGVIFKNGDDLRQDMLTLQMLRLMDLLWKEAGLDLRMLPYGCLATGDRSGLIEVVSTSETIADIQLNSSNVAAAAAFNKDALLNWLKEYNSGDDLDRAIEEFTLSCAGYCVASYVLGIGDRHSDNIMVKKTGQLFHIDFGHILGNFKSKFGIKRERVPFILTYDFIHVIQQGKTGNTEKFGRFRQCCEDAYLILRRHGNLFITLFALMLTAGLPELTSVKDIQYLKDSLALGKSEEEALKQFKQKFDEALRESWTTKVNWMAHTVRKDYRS
# Experimental protocol: Inhibition of N-terminal ploy-His-tagged human PI3Kbeta expressed in baculovirus-infected sf21 cells using PI(4,5)P2 as substrate after 15 mins by HTRF assay
IC50 reference
Metric name: IC50 (nM)

> print(dat)
                                    molecule  metric.name  endpoint.result
 1  CC1(C)CN(C(=O)Cc2nc(N3CCOCC3)cc(=O)[nH]2)c2ccccc21         IC50               17
 2  O=C(Cc1nc(N2CCOCC2)cc(=O)[nH]1)N1CCc2c(-c3ccccc3)cccc21         IC50                8
 3  O=C(Cc1nc(N2CCOCC2)cc(=O)[nH]1)N1CCc2cc(F)ccc21         IC50                4
 4  C[C@@H]1Cc2ccccc2N1C(=O)Cc1nc(N2CCOCC2)cc(=O)[nH]1         IC50                6
 5  CN1CCN(c2cccc3c2CCN3C(=O)Cc2nc(N3CCOCC3)cc(=O)[nH]2)CC1         IC50              407
 6  O=C(Cc1nc(N2CCOCC2)cc(=O)[nH]1)N1CCc2c1cccc2C(F)(F)F         IC50               10
 7  C[C@H]1Cc2ccccc2N1C(=O)Cc1nc(N2CCOCC2)cc(=O)[nH]1 [SAR-260301]         IC50               23
 8  O=C(Cc1nc(N2CCOCC2)cc(=O)[nH]1)N1CCc2c(-c3ccccn3)cccc21         IC50               98
 9  O=C(Cc1nc(N2CCOCC2)cc(=O)[nH]1)N1CCc2c(Cl)cccc21         IC50                1
10  CC1Cc2ccccc2N1C(=O)Cc1nc(N2CCOCC2)cc(=O)[nH]1 (racemic)         IC50                4
11  CC1(C)Cc2ccccc2N1C(=O)Cc1nc(N2CCOCC2)cc(=O)[nH]1         IC50              102
12  O=C(Cc1nc(N2CCOCC2)cc(=O)[nH]1)N1CCc2c(-c3cccnc3)cccc21         IC50               17
13  CC1CN(C(=O)Cc2nc(N3CCOCC3)cc(=O)[nH]2)c2ccccc21 (racemic)         IC50               22
14  O=C(Cc1nc(N2CCOCC2)cc(=O)[nH]1)N1CCc2ccccc21         IC50                4
15  O=C(Cc1nc(N2CCOCC2)cc(=O)[nH]1)N1CCc2c(-c3ccncc3)cccc21         IC50               10
16  COc1cccc2c1CCN2C(=O)Cc1nc(N2CCOCC2)cc(=O)[nH]1         IC50               41
17  O=C(Cc1nc(N2CCOCC2)cc(=O)[nH]1)N1CCc2c(OC(F)(F)F)cccc21         IC50               33
18  O=C(Cc1nc(N2CCOCC2)cc(=O)[nH]1)N1CCc2c(Br)cccc21         IC50                6
19  CN1CCN(Cc2cccc3c2CCN3C(=O)Cc2nc(N3CCOCC3)cc(=O)[nH]2)CC1         IC50              332
20  Cn1c(CC(=O)N2CCc3ccccc32)nc(N2CCOCC2)cc1=O         IC50               48
21  Cc1cccc2c1CCN2C(=O)Cc1nc(N2CCOCC2)cc(=O)[nH]1         IC50                5
22  O=C(Cc1nc(N2CCOCC2)cc(=O)[nH]1)N1CCc2cc(Cl)ccc21         IC50               79
